target: recombinant human androgen receptor (hAR) (Homo sapiens)
method_description: Human androgen receptor binding analysis (3H-DHT competitive binding)
pIC50: −log10 of the molar value.
# pIC50 >= 8 gives TRUE, anything below gives FALSE

Enquiry: Does the compound CCCN(CC)c1ccc(C#N)c(Cl)c1 have recorded pIC50 that is 8 or more?
Return: TRUE

Enquiry: And the next one, N#Cc1ccc(N2CCC[C@@H]2CO)cc1C(F)(F)F ?
Return: FALSE

Enquiry: And the next one, CC(C)[C@@H](C)N(C)c1ccc(C#N)c(Cl)c1 ?
Return: FALSE

Enquiry: And the next one, CCC(C)N(C)c1ccc(C#N)c(C(F)(F)F)c1 (stereo not shown) ?
Return: TRUE

Enquiry: And the next one, CC[C@@H](C)N(CC)c1ccc(C#N)c(Cl)c1 ?
Return: TRUE

Enquiry: And the next one, CC(C)N(C)c1ccc(C#N)c(C(F)(F)F)c1 ?
Return: TRUE

Enquiry: And the next one, CC[C@H](C)N(C)c1ccc(C#N)c(C(F)(F)F)c1 ?
Return: TRUE

###

Field: pIC50. Provide a value for each of the molecules that follow.
target: recombinant human androgen receptor (hAR) (Homo sapiens, UniProt P10275)
Sequence (P10275 whole entry): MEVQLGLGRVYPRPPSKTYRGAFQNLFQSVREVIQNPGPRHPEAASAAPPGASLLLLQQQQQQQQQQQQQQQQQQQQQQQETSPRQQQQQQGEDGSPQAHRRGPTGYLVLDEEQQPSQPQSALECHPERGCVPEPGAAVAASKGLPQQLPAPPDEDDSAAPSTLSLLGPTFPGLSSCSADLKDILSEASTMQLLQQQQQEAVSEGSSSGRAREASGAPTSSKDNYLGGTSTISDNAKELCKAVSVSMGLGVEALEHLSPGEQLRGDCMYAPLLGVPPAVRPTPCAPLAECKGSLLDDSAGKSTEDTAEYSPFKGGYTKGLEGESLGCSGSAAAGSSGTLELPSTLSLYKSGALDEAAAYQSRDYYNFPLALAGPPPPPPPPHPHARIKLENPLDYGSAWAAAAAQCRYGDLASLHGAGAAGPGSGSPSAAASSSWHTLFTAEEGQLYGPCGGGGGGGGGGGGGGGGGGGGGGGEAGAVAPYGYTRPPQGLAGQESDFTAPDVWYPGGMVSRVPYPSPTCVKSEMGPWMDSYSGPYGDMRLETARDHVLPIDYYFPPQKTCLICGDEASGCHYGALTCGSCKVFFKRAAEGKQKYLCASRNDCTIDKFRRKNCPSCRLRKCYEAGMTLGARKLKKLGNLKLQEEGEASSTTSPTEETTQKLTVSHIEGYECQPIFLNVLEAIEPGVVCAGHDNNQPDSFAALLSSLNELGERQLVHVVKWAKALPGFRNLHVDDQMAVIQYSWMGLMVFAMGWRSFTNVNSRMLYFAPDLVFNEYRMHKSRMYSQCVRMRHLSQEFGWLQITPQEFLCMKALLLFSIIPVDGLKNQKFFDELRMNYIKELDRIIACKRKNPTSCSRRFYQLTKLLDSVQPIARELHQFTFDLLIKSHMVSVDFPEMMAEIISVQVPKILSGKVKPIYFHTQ
method_description: Human androgen receptor binding analysis (3H-DHT competitive binding)
The value called pIC50 is obtained by taking minus log10 of the concentration in mol/L.

Enquiry: Consider the molecule CC[C@H]1CCCCN1c1cc(F)c(C#N)c(F)c1 and give its measured pIC50.
Return: 8.94

Enquiry: And the next one, CC[C@@H](C)N(CC)c1ccc(C#N)c(C#N)c1 ?
Return: 8.42

Enquiry: And the next one, N#Cc1ccc(N2CCCCC2CO)cc1C(F)(F)F (stereo not shown) ?
Return: 7.81

Enquiry: And the next one, CCCC1CCCCN1c1ccc(C#N)c(C(F)(F)F)c1 (stereo not shown) ?
Return: 8.63

Enquiry: And the next one, CC(C)N(C)c1ccc(C#N)c(C#N)c1 ?
Return: 8.08

Enquiry: And the next one, CCCN(c1ccc(C#N)c(Cl)c1)[C@H](C)CC ?
Return: 8.48

Enquiry: And the next one, CCOC[C@H]1CCCN1c1ccc(C#N)c(C(F)(F)F)c1 ?
Return: 8.68

Enquiry: And the next one, CCCN(c1ccc(C#N)c(C#N)c1)[C@H](C)CC ?
Return: 8.10

Enquiry: And the next one, CC[C@@H](C)N(C)c1ccc(C#N)c(C(F)(F)F)c1 ?
Return: 8.96

Enquiry: And the next one, CCN(CC)c1ccc(C#N)c(Cl)c1 ?
Return: 8.53

###

Field: IC50. Provide a value for each of the compounds that follow.
target: recombinant human androgen receptor (hAR) (Homo sapiens)
method_description: Human androgen receptor binding analysis (3H-DHT competitive binding)
Output spec: scalar in nM, unitless text.

Enquiry: Consider the compound CCCCCN(CCC)c1ccc(C#N)c(C(F)(F)F)c1 and give its measured IC50.
Return: 9.39

Enquiry: And the next one, CC[C@H](C)N(CC)c1ccc(C#N)c(C(F)(F)F)c1 ?
Return: 7.32

Enquiry: And the next one, CCCN(c1ccc(C#N)c(Cl)c1)C(C)C ?
Return: 9.79

Enquiry: And the next one, CC[C@H]1CCCCN1c1ccc(C#N)c(C#N)c1 ?
Return: 7.75

Enquiry: And the next one, COC[C@H]1CCCN1c1ccc(C#N)c(C(F)(F)F)c1 ?
Return: 10.1

Enquiry: And the next one, CCCN(CCC)c1ccc(C#N)c(C#N)c1 ?
Return: 6.44

Enquiry: And the next one, CCC1CC(CO)CCN1c1ccc(C#N)c(C(F)(F)F)c1 (stereo not shown) ?
Return: 9.63
